# Substrate: C[C@H](NC(=O)CCC(=O)O)C(=O)N[C@@H](C)C(=O)N1CCC[C@H]1C(=O)N[C@@H](Cc1ccccc1)C(=O)Nc1ccc([N+](=O)[O-])cc1
# assay-details: Kinetic parameters from progress curves, p-nitroanilide substrates
# Assay type: biochemical, B. amyloliquefaciens
# condition-notes: other: 25° C., 0.1M tris buffer, pH 8.6
For each of the proteins below, state its Km.
A complete answer gives the number and then names the unit.

Return value of Km for input B. amyloliquefaciens subtilisin variant asn + 166 (glycine+166 substituted) (Bacillus amyloliquefaciens; G273N) (protein, codons for the mature subtilisin corresponding to that secreted by the B. amyloliquefaciens; made in house; host or cells: Bacillus subtilis BG2036 (protease deficient)) AQSVPYGVSQIKAPALHSQGYTGSNVKVAVIDSGIDSSHPDLKVAGGASMVPSETNPFQDNNSHGTHVAGTVAALNNSIGVLGVAPSASLYAVKVLGADGSGQYSWIINGIEWAIANNMDVINMSLGGPSGSAALKAAVDKAVASGVVVVAAAGNEGTSGSSSTVNYPGKYPSVIAVGAVDSSNQRASFSSVGPELDVMAPGVSIQSTLPGNKYGAYNGTSMASPHVAGAAALILSKHPNWTNTQVRSSLENTTTKLGDSFYYGKGLINVQAAAQ , no commentary.
140 µM

Return value of Km for input B. amyloliquefaciens subtilisin variant hys + 166 (glycine+166 substituted) (Bacillus amyloliquefaciens; G273H) (protein, codons for the mature subtilisin corresponding to that secreted by the B. amyloliquefaciens; made in house; host or cells: Bacillus subtilis BG2036 (protease deficient)) AQSVPYGVSQIKAPALHSQGYTGSNVKVAVIDSGIDSSHPDLKVAGGASMVPSETNPFQDNNSHGTHVAGTVAALNNSIGVLGVAPSASLYAVKVLGADGSGQYSWIINGIEWAIANNMDVINMSLGGPSGSAALKAAVDKAVASGVVVVAAAGNEGTSGSSSTVHYPGKYPSVIAVGAVDSSNQRASFSSVGPELDVMAPGVSIQSTLPGNKYGAYNGTSMASPHVAGAAALILSKHPNWTNTQVRSSLENTTTKLGDSFYYGKGLINVQAAAQ , no commentary.
110 µM
